Test system: Plasmodium yoelii nigeriensis
Experiment: Antimalarial activity against multidrug-resistant Plasmodium yoelii nigeriensis infected Swiss mice (Mus musculus) assessed as suppression in parasitaemia at 100 mg/kg, perorally for 4 days measured on day 7
Format: functional
Settings: route oral
Can you tell me inhibition in vivo at 100 mg/kg for the items I'm about to list?
Units required after the number.

Any idea what inhibition in vivo at 100 mg/kg was measured for Fc1cccc(NC(=S)Nc2ccc3ncnc(Nc4cccc(Cl)c4)c3c2)c1 ?
61.1%

Proceed to S=C(Nc1cccc(Cl)c1)Nc1ccc2ncnc(Nc3cccc(Cl)c3)c2c1
16.1%

Proceed to COc1cccc(Nc2ncnc3ccc(NC(=S)Nc4ccc(Br)cc4)cc23)c1
99.9%

Proceed to COc1cccc(Nc2ncnc3ccc(NC(=S)Nc4cccc(Cl)c4)cc23)c1
28.4%
